- System: HCV replication, genotype 1a (Huh-7 HCV replicon cell)
- ASSAY_SUMMARY: Replicon ELISA cell based assay, genotype 1a
- SETTINGS: Hepatitis C virus, Huh-7 HCV replicon cells, 72 hours, mean, assayed at least twice
pIC50: −log10 of the molar value.
# key: entry, value: pIC50

Worked examples follow.
## Input Need pIC50, item CC(C)N(c1cc(-c2ccc(-c3cc4cnccc4o3)cc2)sc1C(=O)O)C(=O)[C@H]1CC[C@H](C)CC1 [Example 13]
## Output 6.30 to 7.00

## Input # pIC50 lookup, item CC(C)N(c1cc(-c2coc(-c3nc4ccccc4o3)c2)sc1C(=O)O)C(=O)[C@H]1CC[C@H](C)CC1
## Output 6.30 to 7.00

## Input Which pIC50 value belongs to CC(C)N(c1cc(-c2ccc(-c3cc4ncccn4n3)cc2)sc1C(=O)O)C(=O)[C@H]1CC[C@H](C)CC1 ?
## Output 7.30 to 8.00

## Input Endpoint output: pIC50 of CC(C)N(c1cc(-c2ccc(-c3cn4cc(N)ccc4n3)cc2)sc1C(=O)O)C(=O)[C@H]1CC[C@H](C)CC1 . Value?
## Output 6.30 to 7.00

## Input Recorded pIC50 of CC(C)N(c1cc(-c2ccc(-c3cc4ncccc4o3)cc2)sc1C(=O)O)C(=O)[C@H]1CC[C@H](C)CC1 , please.
## Output 7.30 to 8.00

Next:
## Input GET /values?readout=pIC50&item= CC(C)N(c1cc(-c2ccc(-c3ccc4cc[nH]c4c3)cc2)sc1C(=O)O)C(=O)[C@H]1CC[C@H](C)CC1
## Output 6.30 to 7.00

## Input Which pIC50 reading was recorded for the molecule Cc1cc(N)n2nc(-c3ccc(-c4cc(N(C(=O)[C@H]5CC[C@H](C)CC5)C(C)C)c(C(=O)O)s4)cc3)cc2n1 ?
## Output > 8.30

## Input Suppose we examine the molecule CC(C)N(c1cc(-c2ccc(-c3ccc4[nH]ccc4c3)cc2)sc1C(=O)O)C(=O)[C@H]1CC[C@H](C)CC1 ; what pIC50 value has been reported?
## Output 6.30 to 7.00

## Input Recorded pIC50 for CC(C)N(c1cc(-c2ccc(-c3cnc4occc4c3)cc2)sc1C(=O)O)C(=O)[C@H]1CC[C@H](C)CC1 , please?
## Output 6.30 to 7.00

----------
// values below are reported pIC50
- Tested on: HCV replication, genotype 1a (Huh-7 HCV replicon cell)
- ASSAY_SUMMARY: Replicon ELISA cell based assay, genotype 1a
- SETTINGS: Hepatitis C virus, Huh-7 HCV replicon cells, 72 hours, mean, assayed at least twice
pIC50: −log10 of the molar value.

The examples below pair each entry with its known result.
## Input What value of pIC50 has been reported for the following compound? CC(C)N(c1cc(-c2ccc(-c3nc4c(N)cccc4o3)cc2)sc1C(=O)O)C(=O)[C@H]1CC[C@H](C)CC1 [Example 16]
## Output 7.30 to 8.00

## Input # lookup: pIC50 of CC(C)N(c1cc(-c2ccc(-c3cc4ncccc4o3)cc2)sc1C(=O)O)C(=O)[C@H]1CC[C@H](C(F)(F)F)CC1 [Example 22]
## Output 7.00 to 7.30

## Input Record request: pIC50 value, item C[C@H]1CC[C@H](C(=O)N(CC2CC2)c2cc(-c3ccc(-c4cc5ncccn5n4)cc3)sc2C(=O)O)CC1 [Example 35]
## Output 7.30 to 8.00

## Input I have this compound here, CC(C)N(c1cc(-c2ccc(-c3cc4cccnn4n3)cc2)sc1C(=O)O)C(=O)[C@H]1CC[C@H](C)CC1 [Example 24] , and I need its recorded pIC50.
## Output 6.30 to 7.00

## Input Please give the measured pIC50 for this compound: CC(C)N(c1cc(-c2ccc(C#N)cc2)sc1C(=O)O)C(=O)[C@H]1CC[C@H](C)CC1 [Compound D, reference compound]
## Output 5.30 to 6.00

More entries:
## Input Endpoint output: pIC50 of CC(C)N(c1cc(-c2ccc(-c3nc4cccnc4o3)cc2)sc1C(=O)O)C(=O)[C@H]1CC[C@H](C)CC1 [Example 11] . Value?
## Output 6.30 to 7.00

## Input # lookup: pIC50 of CC(C)N(c1cc(-c2ccc(-c3cn4ccsc4n3)cc2)sc1C(=O)O)C(=O)[C@H]1CC[C@H](C(F)(F)F)CC1 [Example 21]
## Output 7.00 to 7.30
